Values from PubChem BioAssay (NCI)

system: HT29 colon; experiment: NCI tumour cell line growth inhibition, 48 h; in the data active means GI50 below about 0.43 µM; inactive means the rest
# output must be one of active, inactive

Request: // return assay outcome for `O=C(NC1CCN(Cc2ccccc2)CC1)c1cc(-c2ccncc2)nc2ccc(Cl)cc12`
Result: inactive

Request: // return assay outcome for COc1cc(C2c3[nH]c4ccccc4c3C[C@H]3COC(=O)N23)cc(OC)c1OC (some centres not stated)
Result: active

Request: // return assay outcome for `CN=C(N)N/N=C(\C)c1ccc2c(c1)Cc1cc(/C(C)=N/NC(N)=NC)ccc1-2`
Result: inactive

Request: // return assay outcome for `O=C1c2ccccc2-c2c1c1ccccc1c(=O)n2CCCCNCCCn1c2c(c3ccccc3c1=O)C(=O)c1ccccc1-2`
Result: active

Request: // return assay outcome for `COc1cc2c3c(n(CCCN)c(=O)c2cc1OC)-c1ccccc1C3=O`
Result: active

Request: // return assay outcome for `COc1ccc2oc(=O)cc(C(c3ccc[nH]3)c3ccc[nH]3)c2c1`
Result: active

Request: // return assay outcome for `COC(=O)CCC(=O)C(=O)OC`
Result: inactive
